# assay_text: in vitro
# experimental_parameters: mouse
metric: Papp at 3 h, 10 µM (×10⁻⁶ cm/s)
Report the value in ×10⁻⁶ cm/s with no unit label.

For reference, reported Papp at 3 h, 10 µM for CC(C)NCC(O)COc1cccc2ccccc12 (stereo not shown) stands at 9.69

---

# target_entity: UniProt P21447
# Sequence (P21447 whole entry): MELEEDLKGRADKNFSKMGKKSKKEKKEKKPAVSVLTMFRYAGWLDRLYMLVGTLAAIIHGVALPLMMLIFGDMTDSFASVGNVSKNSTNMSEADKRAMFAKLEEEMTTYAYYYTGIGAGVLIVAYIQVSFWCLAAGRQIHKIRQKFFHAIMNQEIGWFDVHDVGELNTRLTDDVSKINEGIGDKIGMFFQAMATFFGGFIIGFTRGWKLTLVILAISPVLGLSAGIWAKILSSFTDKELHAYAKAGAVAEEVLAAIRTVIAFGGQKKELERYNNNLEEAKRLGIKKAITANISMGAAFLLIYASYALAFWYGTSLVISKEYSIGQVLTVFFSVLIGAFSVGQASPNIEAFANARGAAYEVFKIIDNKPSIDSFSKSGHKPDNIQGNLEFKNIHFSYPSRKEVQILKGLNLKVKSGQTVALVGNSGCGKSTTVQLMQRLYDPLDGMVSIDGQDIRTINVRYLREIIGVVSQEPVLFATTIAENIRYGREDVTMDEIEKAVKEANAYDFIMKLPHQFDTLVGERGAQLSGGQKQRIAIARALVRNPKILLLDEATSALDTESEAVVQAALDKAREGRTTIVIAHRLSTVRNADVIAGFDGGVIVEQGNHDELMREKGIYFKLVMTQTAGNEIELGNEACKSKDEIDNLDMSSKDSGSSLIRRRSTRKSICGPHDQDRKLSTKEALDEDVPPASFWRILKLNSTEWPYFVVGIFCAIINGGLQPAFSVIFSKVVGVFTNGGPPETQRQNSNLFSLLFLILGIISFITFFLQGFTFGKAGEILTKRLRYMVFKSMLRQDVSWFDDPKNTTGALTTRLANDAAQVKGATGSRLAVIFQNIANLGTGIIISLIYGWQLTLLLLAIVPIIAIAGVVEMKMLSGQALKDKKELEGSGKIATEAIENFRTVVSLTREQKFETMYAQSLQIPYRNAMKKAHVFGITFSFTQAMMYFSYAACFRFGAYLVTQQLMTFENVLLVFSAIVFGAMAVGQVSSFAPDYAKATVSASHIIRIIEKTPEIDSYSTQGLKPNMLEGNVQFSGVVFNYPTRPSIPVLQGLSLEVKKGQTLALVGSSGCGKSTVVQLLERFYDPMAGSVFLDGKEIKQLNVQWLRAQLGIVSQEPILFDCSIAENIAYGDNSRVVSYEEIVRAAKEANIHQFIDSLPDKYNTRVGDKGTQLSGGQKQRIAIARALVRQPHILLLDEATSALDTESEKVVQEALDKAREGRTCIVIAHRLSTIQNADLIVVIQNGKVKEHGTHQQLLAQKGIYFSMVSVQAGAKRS
# assay_text: in vitro
metric: efflux ratio at 2 h, 10 µM
Number, no unit, nothing else.

Observed efflux ratio at 2 h, 10 µM, UniProt P21447, COC(=O)c1ccccc1-c1c2ccc(=N)cc-2oc2cc(N)ccc12 [Rh123, rhodamine 123] : 7

Origin of values: paper PMC6339567
